Organism: Homo sapiens
Test: Selectivity index, ratio of Ki for human oxytocin receptor to Ki for human vasopressin V1b receptor
Assignment: determine reported Ratio Ki for the given molecules.
Give bare numbers.

Exercise: Item COc1ncccc1C1(N2CCN(c3cccnc3)CC2)C(=O)N(S(=O)(=O)c2cccc3cccnc23)c2ccc(Cl)cc21 (stereo not drawn) has what recorded Ratio Ki?
Key: 2

Exercise: Item COc1ccc(S(=O)(=O)N2C(=O)C(c3cc(OC)ccc3OC)(N3CCN(c4ccncc4)CC3)c3cc(C#N)ccc32)c(OC)c1 (stereo not drawn) has what recorded Ratio Ki?
Key: 2

Exercise: Item CCOc1ccc(OC)cc1C1(N2CCN(c3ccncc3)CC2)C(=O)N(S(=O)(=O)c2ccc(F)c3cccnc23)c2ccc(C#N)cc21 (stereo not drawn) has what recorded Ratio Ki?
Key: 21

Exercise: Item CCOc1cc(OC)ccc1C1(N2CCN(c3ccncc3)CC2)C(=O)N(S(=O)(=O)c2ccc(OC)cc2OC)c2ccc(C#N)cc21 (stereo not drawn) has what recorded Ratio Ki?
Key: 3

Exercise: Item COc1ncccc1C1(N2CCN(c3cccnc3)CC2)C(=O)N(S(=O)(=O)c2cccc3cccnc23)c2ccc(C#N)cc21 (stereo not drawn) has what recorded Ratio Ki?
Key: 3

Exercise: Item CCOc1nc(Cl)ccc1C1(N2CCN(c3ccnc(C)c3)CC2)C(=O)N(S(=O)(=O)c2ccc(OC)cn2)c2ccc(C#N)cc21 (single isomer, unassigned; (+)) has what recorded Ratio Ki?
Key: 65

Exercise: Item COc1ccc(S(=O)(=O)N2C(=O)C(c3ccccc3OC)(N3CCN(c4cccnc4)CC3)c3cc(Cl)ccc32)c(OC)c1 (stereo not drawn) has what recorded Ratio Ki?
Key: 0.9

Shifting focus to the molecule that follows.
Exercise: Item CCOc1nc(Cl)ccc1C1(N2CCN(c3ccnc(C)c3)CC2)C(=O)N(S(=O)(=O)c2ccc(OC)cn2)c2ccc(C#N)cc21 (racemic) has what recorded Ratio Ki?
Key: 69

----------
Biological target: Cytochrome P450 3A4 (Homo sapiens, UniProt P08684)
Sequence (P08684 whole entry): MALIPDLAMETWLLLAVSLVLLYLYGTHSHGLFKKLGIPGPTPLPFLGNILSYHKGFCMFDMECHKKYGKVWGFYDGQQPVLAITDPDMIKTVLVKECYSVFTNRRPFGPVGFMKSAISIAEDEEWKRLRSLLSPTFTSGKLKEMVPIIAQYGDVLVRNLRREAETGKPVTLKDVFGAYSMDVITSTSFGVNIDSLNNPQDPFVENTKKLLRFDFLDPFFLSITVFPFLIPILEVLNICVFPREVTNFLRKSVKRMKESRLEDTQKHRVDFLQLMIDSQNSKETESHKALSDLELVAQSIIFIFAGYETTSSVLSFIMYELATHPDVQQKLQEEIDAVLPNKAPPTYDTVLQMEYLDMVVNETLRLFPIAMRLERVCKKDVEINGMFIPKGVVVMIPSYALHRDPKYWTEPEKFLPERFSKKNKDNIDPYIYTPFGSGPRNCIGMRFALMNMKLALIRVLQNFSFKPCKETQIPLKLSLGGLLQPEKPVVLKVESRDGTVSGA
readoutName: pIC50
Numbers only, as −log10 of the molar value.

Exercise: Item CCOc1nc(Cl)ccc1C1(N2CCN(c3ccnc(C)c3)CC2)C(=O)N(S(=O)(=O)c2ccc(OC)cn2)c2ccc(C#N)cc21 (single isomer, unassigned; (+)) has what recorded pIC50?
Key: 5.70

----------
Experiment: Intrinsic clearance in human liver microsomes
Type: ADME, microsome
Settings: read-out: CLH
readoutName: microsomal CLint (µL/min/mg)
Numbers only, in µL/min/mg.

Exercise: Item COc1ccc(S(=O)(=O)N2C(=O)C(c3cc(OC)ccc3OC)(N3CCN(c4ccncc4)CC3)c3cc(C#N)ccc32)c(OC)c1 (configuration not stated) has what recorded microsomal CLint?
Key: 50

Exercise: Item COc1ccc(S(=O)(=O)N2C(=O)C(c3ccccc3OC)(N3CCN(c4ccncc4)CC3)c3cc(C#N)ccc32)c(OC)c1 (configuration not stated) has what recorded microsomal CLint?
Key: 43

Exercise: Item COc1ccc(S(=O)(=O)N2C(=O)C(c3cccnc3OC)(N3CCN(c4cccnc4)C(=O)C3)c3cc(Cl)ccc32)c(OC)c1 (configuration not stated) has what recorded microsomal CLint?
Key: 196

For each of the molecules below, state microsomal CLint.
1. CCOc1ncccc1C1(N2CCN(c3ccncc3)CC2)C(=O)N(S(=O)(=O)c2ccc(OC)cc2OC)c2ccc(C#N)cc21 (configuration not stated)
2. CCOc1nc(Cl)ccc1C1(N2CCN(c3ccncc3)CC2)C(=O)N(S(=O)(=O)c2ccc(OC)cn2)c2ccc(C#N)cc21 (configuration not stated)
3. CCOc1cc(OC)ccc1C1(N2CCN(c3ccncc3)CC2)C(=O)N(S(=O)(=O)c2ccc(OC)cc2OC)c2ccc(C#N)cc21 (configuration not stated)
4. COc1ncccc1C1(N2CCN(c3cccnc3)CC2)C(=O)N(S(=O)(=O)c2cccc3cccnc23)c2ccc(C#N)cc21 (configuration not stated)

Key:
[77, 39, 63, 326]
